test system: HCT-116 colon; assay: NCI tumour cell line growth inhibition, 48 h
Readout Type: TGI

Look over these answered cases.
Query block: Fill in the recorded TGI for this compound, with HCT-116 colon as test system: C=C(C)[C@@H]1CC[C@]2(CO)CC[C@]3(C)[C@H](CC[C@@H]4[C@@]5(C)CCC(NCCc6ccc(O)cc6)C(C)(C)[C@@H]5CC[C@]43C)[C@@H]12 (stereo not given in full)
Result block: 2.84 µM

Query block: Hi! What's the reported TGI for COC(=O)c1c2c(cc3c1CC1(Cc4cc5c(cc4C1=O)CCC5)C3)CCC2 (stereo not given) on HCT-116 colon?
Result block: > 100 µM

Query block: Lab note: need TGI with HCT-116 colon for entry CC1=C([Te]c2ccc(O)cc2)C(=O)c2ccccc2C1=O , please look it up.
Result block: 2.05 µM

Query block: Tell me reported TGI for O=c1[nH]c(-n2[nH]c3c(c2=O)CCCC3)nc(O)c1-c1ccccc1 , tested with HCT-116 colon.
Result block: > 100 µM

Query block: Param readout= TGI; system= HCT-116 colon; entry= COc1cc(/C=C\c2cccnc2)cc(OC)c1OC ; returns value.
Result block: > 100 µM

***
Query block: Please provide the recorded TGI for Nc1ncnc2c1ncn2[C@H]1CC[C@@H](NO)C1 , tested on HCT-116 colon.
Result block: > 100 µM

Query block: So what TGI did CCOP(=O)(OCC)[C@H]1OC(C)(C)O[C@@H]1CO get with HCT-116 colon?
Result block: > 100 µM

Query block: HCT-116 colon / TGI / N#C/C(=C/Sc1ccccc1)C(=O)O : value?
Result block: 55.8 µM

Query block: Query TGI on HCT-116 colon for CN1CC[C@]2(c3cccc(O)c3)CC(=O)/C(=C/c3ccc(Cl)c(Cl)c3)[C@@H]1C2
Result block: 2.47 µM

Query block: Give recorded TGI with HCT-116 colon for the following compound: COc1ccc(CNc2nc3cc(N)cc(N)c3nc2-c2ccccc2)cc1
Result block: 27.5 µM
